Exercise: state measured IC50 for each of the compounds provided.
# Measured Target: Phosphodiesterase 4 (Homo sapiens, UniProt P27815+Q08499+Q07343+Q08493)
# Method: Inhibition of PDE4 from human U937 cells
# Format: cell-based
# Test Parameters: u-937
Returns: string containing the number followed by the unit.

Compound	Measured Target	Property Name	Endpoint Value
COc1ccc(/C=N/OCC(O)CN2CCOCC2)cc1OC1CCCC1 (stereo in doubt; (+)-1c)	Phosphodiesterase 4 (Homo sapiens, UniProt P27815+Q08499+Q07343+Q08493)	IC50	10.5 µM
COc1ccc(/C=N/OCC(O)CN(CCO)CCO)cc1OC1CCCC1 (centres undefined)	Phosphodiesterase 4 (Homo sapiens, UniProt P27815+Q08499+Q07343+Q08493)	IC50	6.7 µM
COc1ccc(/C=N/OCC(CN2CCOCC2)OC(=O)c2ccccc2)cc1OC1CCCC1 (stereo in doubt; 3c)	Phosphodiesterase 4 (Homo sapiens, UniProt P27815+Q08499+Q07343+Q08493)	IC50	3.62 µM

# compound COc1ccc(/C=N/OCC(CN2CCOCC2)OC(C)=O)cc1OC1CCCC1 (stereo in doubt; 2c) ; its IC50 = 3.98 µM

====

# Measured Target: Phosphodiesterase 4 (Homo sapiens, UniProt P27815+Q08499+Q07343+Q08493)
# Method: Inhibition of PDE4 from human U937 cells at 10 uM relative to control
# Format: cell-based
# Test Parameters: U-937
Exercise: state measured inhibition for each of the molecules provided.

Some entries whose results are on file:
Molecule	Property Name	Endpoint Value
COc1ccc(/C=N/OCC(O)CN2CCOCC2)cc1OC1CCCC1 (stereo in doubt; (+)-1c)	inhibition	55%
COc1ccc(/C=N/OCC(CN2CCCC2)OC(=O)c2ccccc2)cc1OC1CCCC1 (centres undefined)	inhibition	43%
COc1ccc(/C=N/OCC(CN2CCOCC2)OC(C)=O)cc1OC1CCCC1 (stereo in doubt; (-)-2c)	inhibition	70%
COc1ccc(/C=N/OCC(O)CN2CCCCC2)cc1OC1CCCC1 (centres undefined)	inhibition	20%
COc1ccc(/C=N/OCC(O)CN2CCOCC2)cc1OC1CCCC1 (stereo in doubt; (-)-1c)	inhibition	69%

Hi team, please reply with inhibition for each item in this list.
1. COc1ccc(/C=N/OCC(CN2CCOCC2)OC(=O)c2ccccc2)cc1OC1CCCC1 (stereo in doubt; 3c)
2. COc1ccc(/C=N/OCC(O)CN(CCO)CCO)cc1OC1CCCC1 (centres undefined)
3. COc1ccc(/C=N/OCC(O)CN2CCCC2)cc1OC1CCCC1 (centres undefined)
4. COc1ccc(/C=N/OCC(CN2CCOCC2)OC(C)=O)cc1OC1CCCC1 (stereo in doubt; 2c)

RESULT:
1: 73%; 2: 55%; 3: 6%; 4: 68%

====

# Measured Target: Phosphodiesterase 4 (Homo sapiens, UniProt P27815+Q08499+Q07343+Q08493)
# Method: Inhibition of PDE4 from human U937 cells at 10 uM relative to control
# Assay type: cell-based
# Test Parameters: U-937
Property Name: inhibition (%)
Give bare numbers, in %.

Some entries whose results are on file:
Compound	Measured Target	inhibition [%]
COc1ccc(/C=N/OCC(CN2CCCCC2)OC(C)=O)cc1OC1CCCC1 (stereo not drawn)	Phosphodiesterase 4 (Homo sapiens, UniProt P27815+Q08499+Q07343+Q08493)	28
COc1ccc(/C=N/OCC(CN2CCOCC2)OC(=O)c2ccccc2)cc1OC1CCCC1 (single isomer, unassigned; (-))	Phosphodiesterase 4 (Homo sapiens, UniProt P27815+Q08499+Q07343+Q08493)	88

# compound COc1ccc(/C=N/OCC(O)CNCCCN2CCOCC2)cc1OC1CCCC1 (stereo not drawn) ; its inhibition = 43
